# Test system: rodent lifetime carcinogenesis bioassay, tumor incidence TD50
# TEST_DETAILS: carcinogenic potency in animals, long-term in vivo studies, CPDB compilation (AID 1745844)
# MEASUREMENT_SETUP: rat; strain Fischer 344; males; in feed; site: kidney; lesion: adenocarcinoma, NOS + tubular-cell adenoma + tubular-cell adenocarcinoma; dosed 78 weeks; study length 104 weeks
OUTCOME_MEASURE: TD50

>  <CHEMICAL_STRUCTURE>
Cc1ccc2c(c1N)C(=O)c1ccccc1C2=O

>  <TARGET_OR_SYSTEM>
rodent lifetime carcinogenesis bioassay, tumor incidence TD50

>  <MEASURED_RESULT>
131 mg/kg/day

$$$$
